system: COLO 205; assay: Cytotoxicity against human COLO205 cells; format: functional, cell-based
Documented IC50 across a set of compounds
Give the number; nM is assumed, so skip it.

# smiles, assay result
rows = [
    ("CCCCCCCCCC(=O)O[C@H](C)[C@H](O)C(=O)[C@@H](OC)[C@@H]1Cc2cc3cc(O[C@H]4C[C@@H](O[C@@H]5C[C@@H](O)[C@H](OC)[C@@H](C)O5)[C@H](OC(C)=O)[C@@H](C)O4)c(C)c(O)c3c(O)c2C(=O)[C@H]1O[C@H]1C[C@H](O[C@H]2C[C@H](O[C@H]3C[C@@](C)(O)[C@@H](OC(C)=O)[C@H](C)O3)[C@H](O)[C@@H](C)O2)[C@H](O)[C@@H](C)O1", 250),
    ("CO[C@H]1[C@H](O)C[C@@H](O[C@@H]2C[C@H](Oc3cc4cc5c(c(O)c4c(O)c3C)C(=O)[C@@H](O[C@H]3C[C@H](O[C@H]4C[C@H](O[C@H]6C[C@@](C)(O)[C@@H](OC(C)=O)[C@H](C)O6)[C@H](O)[C@@H](C)O4)[C@H](O)[C@@H](C)O3)[C@H]([C@H](OC)C(=O)[C@@H](O)[C@@H](C)OC(C)=O)C5)O[C@H](C)[C@H]2OC(C)=O)O[C@@H]1C", 65),
]

Input line: Which IC50 is listed for CO[C@@H]1[C@H](O)C[C@@H](O[C@@H]2C[C@H](Oc3cc4cc5c(c(O)c4c(O)c3C)C(=O)[C@@H](O[C@H]3C[C@@H](O[C@H]4C[C@@H](O[C@H]6C[C@](C)(O)[C@@H](OC(C)=O)[C@H](C)O6)[C@H](O)[C@@H](C)O4)[C@H](O)[C@@H](C)O3)[C@H]([C@H](OC)C(=O)[C@@H](O)[C@@H](C)O)C5)O[C@H](C)[C@@H]2OC(C)=O)O[C@@H]1C ?
Output line: 63

---

tested on: COLO 205; test: Cytotoxicity against human COLO205 cells; assay type: functional, cell-based
property measured: IC50

Input line: Which IC50 is listed for CCC(=O)O[C@H](C)[C@H](O)C(=O)[C@@H](OC)[C@@H]1Cc2cc3cc(O[C@H]4C[C@@H](O[C@@H]5C[C@@H](O)[C@H](OC)[C@@H](C)O5)[C@H](OC(C)=O)[C@@H](C)O4)c(C)c(O)c3c(O)c2C(=O)[C@H]1O[C@H]1C[C@H](O[C@H]2C[C@H](O[C@H]3C[C@@](C)(O)[C@@H](OC(C)=O)[C@H](C)O3)[C@H](O)[C@@H](C)O2)[C@H](O)[C@@H](C)O1 ?
Output line: 125 nM

---

Documented IC50 across a set of molecules
tested on: A549; experiment: Cytotoxicity against human A549 cells; type: functional, cell-based
Give the number; nM is assumed, so skip it.

# smiles, property measured, assay result
rows = [
    ("CO[C@@H]1[C@H](O)C[C@@H](O[C@@H]2C[C@H](Oc3cc4cc5c(c(O)c4c(O)c3C)C(=O)[C@@H](O[C@H]3C[C@@H](O[C@H]4C[C@@H](O[C@H]6C[C@](C)(O)[C@@H](OC(C)=O)[C@H](C)O6)[C@H](O)[C@@H](C)O4)[C@H](O)[C@@H](C)O3)[C@H]([C@H](OC)C(=O)[C@@H](O)[C@@H](C)O)C5)O[C@H](C)[C@@H]2OC(C)=O)O[C@@H]1C", "IC50", 100),
    ("CO[C@H]1[C@H](O)C[C@@H](O[C@@H]2C[C@H](Oc3cc4cc5c(c(O)c4c(O)c3C)C(=O)[C@@H](O[C@H]3C[C@H](O[C@H]4C[C@H](O[C@H]6C[C@@](C)(O)[C@@H](OC(C)=O)[C@H](C)O6)[C@H](O)[C@@H](C)O4)[C@H](O)[C@@H](C)O3)[C@H]([C@H](OC)C(=O)[C@@H](O)[C@@H](C)OC(C)=O)C5)O[C@H](C)[C@H]2OC(C)=O)O[C@@H]1C", "IC50", 200),
]

Field: next molecule
Input line: Which IC50 is listed for CCCC(=O)O[C@H](C)[C@H](O)C(=O)[C@@H](OC)[C@@H]1Cc2cc3cc(O[C@H]4C[C@@H](O[C@@H]5C[C@@H](O)[C@H](OC)[C@@H](C)O5)[C@H](OC(C)=O)[C@@H](C)O4)c(C)c(O)c3c(O)c2C(=O)[C@H]1O[C@H]1C[C@H](O[C@H]2C[C@H](O[C@H]3C[C@@](C)(O)[C@@H](OC(C)=O)[C@H](C)O3)[C@H](O)[C@@H](C)O2)[C@H](O)[C@@H](C)O1 ?
Output line: 185

---

Documented pIC50 across a set of compounds
tested on: A549; assay: Cytotoxicity against human A549 cells; type: functional, cell-based
By convention, pIC50 is the negative base-10 log of a molar concentration.

# smiles, assay result
data = [
    ("CCCCCCCCCC(=O)O[C@H](C)[C@H](O)C(=O)[C@@H](OC)[C@@H]1Cc2cc3cc(O[C@H]4C[C@@H](O[C@@H]5C[C@@H](O)[C@H](OC)[C@@H](C)O5)[C@H](OC(C)=O)[C@@H](C)O4)c(C)c(O)c3c(O)c2C(=O)[C@H]1O[C@H]1C[C@H](O[C@H]2C[C@H](O[C@H]3C[C@@](C)(O)[C@@H](OC(C)=O)[C@H](C)O3)[C@H](O)[C@@H](C)O2)[C@H](O)[C@@H](C)O1", 6.30),
]

Input line: Query the reported pIC50 for A549; item: CCC(=O)O[C@H](C)[C@H](O)C(=O)[C@@H](OC)[C@@H]1Cc2cc3cc(O[C@H]4C[C@@H](O[C@@H]5C[C@@H](O)[C@H](OC)[C@@H](C)O5)[C@H](OC(C)=O)[C@@H](C)O4)c(C)c(O)c3c(O)c2C(=O)[C@H]1O[C@H]1C[C@H](O[C@H]2C[C@H](O[C@H]3C[C@@](C)(O)[C@@H](OC(C)=O)[C@H](C)O3)[C@H](O)[C@@H](C)O2)[C@H](O)[C@@H](C)O1
Output line: 6.30

Input line: Query the reported pIC50 for A549; item: C=COC(=O)CCCCC(=O)O[C@H](C)[C@H](O)C(=O)[C@@H](OC)[C@@H]1Cc2cc3cc(O[C@H]4C[C@@H](O[C@@H]5C[C@@H](O)[C@H](OC)[C@@H](C)O5)[C@H](OC(C)=O)[C@@H](C)O4)c(C)c(O)c3c(O)c2C(=O)[C@H]1O[C@H]1C[C@H](O[C@H]2C[C@H](O[C@H]3C[C@@](C)(O)[C@@H](OC(C)=O)[C@H](C)O3)[C@H](O)[C@@H](C)O2)[C@H](O)[C@@H](C)O1
Output line: 7.52

---

system: COLO 205; test: Cytotoxicity against human COLO205 cells; assay type: functional, cell-based
property measured: IC50
# output: number + unit

Input line: Which IC50 is listed for CCCC(=O)O[C@H](C)[C@H](O)C(=O)[C@@H](OC)[C@@H]1Cc2cc3cc(O[C@H]4C[C@@H](O[C@@H]5C[C@@H](O)[C@H](OC)[C@@H](C)O5)[C@H](OC(C)=O)[C@@H](C)O4)c(C)c(O)c3c(O)c2C(=O)[C@H]1O[C@H]1C[C@H](O[C@H]2C[C@H](O[C@H]3C[C@@](C)(O)[C@@H](OC(C)=O)[C@H](C)O3)[C@H](O)[C@@H](C)O2)[C@H](O)[C@@H](C)O1 ?
Output line: 35 nM

Input line: Which IC50 is listed for C=COC(=O)CCCCC(=O)O[C@H](C)[C@H](O)C(=O)[C@@H](OC)[C@@H]1Cc2cc3cc(O[C@H]4C[C@@H](O[C@@H]5C[C@@H](O)[C@H](OC)[C@@H](C)O5)[C@H](OC(C)=O)[C@@H](C)O4)c(C)c(O)c3c(O)c2C(=O)[C@H]1O[C@H]1C[C@H](O[C@H]2C[C@H](O[C@H]3C[C@@](C)(O)[C@@H](OC(C)=O)[C@H](C)O3)[C@H](O)[C@@H](C)O2)[C@H](O)[C@@H](C)O1 ?
Output line: 12 nM
